Compiled from multiple publications: pIC50 readings for O-acyltransferase (Oryctolagus cuniculus, UniProt G1SFD9).
Numbers only, as −log10 of the molar value.

Answered examples (10):
compound: CCCCCCCCCCCCn1nnnc1CS(=O)(=O)Nc1c(C(C)C)cccc1C(C)C
pIC50: 5.92
--
compound: Cc1cc(C)c(NC(=O)C(C)(C)CCCc2ccc(CC(C)C)cc2)c2c1CC(C)(C)O2
pIC50: 7.55
--
compound: CCCCCCCCCCC1(C(=O)Nc2cccc3nc(-c4cccnc4)oc23)CCCC1
pIC50: 6.08
--
compound: CCCCCc1sc(NC(=O)Nc2c(C(C)C)cccc2C(C)C)nc1C
pIC50: 5.72
--
compound: Cc1ccc(C)c(OCCCC(C)(C)C(=O)Nc2cc(C3=NC(C)(C)CO3)ccc2C)c1
pIC50: 5.26
--
compound: CCCCCCCCCCOc1ccc(C(=O)CC(=O)Nc2c(C)cc(C)c3c2OC(C)(C)C3)cc1
pIC50: 6.96
--
compound: Cc1cc(C)c(NC(=O)C(C)(C)CCCCCCOCCCC(C)C)c2c1CC(C)(C)O2
pIC50: 7.24
--
compound: Cc1cc(C)c(NC(=O)C(C)(C)CCCCCOc2ccc([N+](=O)[O-])cc2)c2c1CC(C)(C)O2
pIC50: 6.64
--
compound: COc1ccc(NC(=O)C(C)(C)CCCOc2cc(C)ccc2C)cc1OC
pIC50: 5.52
--
compound: CCCCCCCCCCCCCCS(=O)(=O)NC(=O)Nc1c(C(C)C)cccc1C(C)C
pIC50: 6.08

Below are 5 compounds. Give each one its pIC50.
1. CCCCCCCCCCCCCCC(C)(C)C(=O)NC(C)c1ccccn1 (stereo not drawn)
2. COc1ccc(CN[C@H](CNC(=O)Nc2c(C(C)C)cccc2C(C)C)CC(C)C)cc1
3. CC(C)c1cccc(C(C)C)c1NC(=O)C1CCCC(c2ccccc2)(c2ccccn2)C1=O (stereo not drawn)
4. CCCCCCCCCCCn1nnc(NC(=O)Nc2c(C(C)C)cccc2C(C)C)n1
5. COC(=O)C(C)(C)CCCOc1cccc(NC(=O)C(C)(C)CCCOc2cc(C)ccc2C)c1

6.15
7.24
6.00
8.05
4.68
